Here is a set of compounds with reported IC50 for UniProt P16257, compiled from the literature.
QUANTITY MEASURED: IC50 (µM)

TEST SMILES | TGT | RESULT VALUE
CCN(Cc1ccccc1)Cc1nc2ccccc2c(-c2ccccc2)c1C(=O)N(C)c1ccccc1 | UniProt P16257 | 1.32

[1] CCCN(CCC)C(=O)c1c(-c2ccc(Cl)cc2)nc2ccc(Cl)cn12
[2] CCCN(CCC)C(=O)Cn1c2nc3ccccc3c(C)c2c(=O)n1-c1ccccc1
[3] CCN(CC)C(=O)c1c(-c2ccc(Cl)cc2)nc2ccc(Cl)cn12
[4] CCCCN(CCCC)C(=O)Cn1c2nc3ccccc3c(C)c2c(=O)n1-c1ccccc1
[5] CCCN(CCC)C(=O)c1ccccc1CN(CC)Cc1ccccc1
Ordering criterion: IC50; begin with the maximum. In plain terms: list the labels in the order you were asked to.
5, 3, 1, 4, 2

[I] CCCN(CCC)C(=O)c1c(CN(CC)Cc2ccccc2)nc2ccccc2c1-c1ccccc1
[II] O=C(Nc1cccc(Cl)c1)Nc1cc2ncncc2cc1OCc1ccccc1Cl
Sort I and II by IC50 descending and give the first. Returns: label corresponding to the selected item.
II
(II: 2.79 µM, I: 0.456 µM)

----------
Here is a set of molecules with reported IC50 for Translocator protein (Rattus norvegicus, UniProt P16257), compiled from the literature.
QUANTITY MEASURED: IC50 (nM)

Check out these entries, answers already filled in.
TEST SMILES | VALUE UNIT | IC50
COc1ccc(N(C)C(=O)/C=C2\c3nc4ccccc4cc3C(=O)N2c2ccc(Cl)cc2)cc1 | nM | 0.9
O=C(Nc1ccc(Cl)c(Cl)c1)Nc1cc2ncncc2cc1OCc1cccc(F)c1 | nM | 1320
CCN(Cc1ccccc1)Cc1nc2ccccc2c(-c2ccccc2)c1C(=O)N(CC)CC | nM | 373

[A] COc1ccc(NC(=O)/C=C2\c3nc4ccccc4cc3C(=O)N2c2ccc(Cl)cc2)cc1
[B] CCN(CC)C(=O)c1cc(-c2ccccc2)c2ccccc2c1
Sort A and B by IC50 descending and give the first. Returns: label corresponding to the selected item.
A

----------
Here is a set of compounds with reported IC50 for Translocator protein (Rattus norvegicus, UniProt P16257), compiled from the literature.
QUANTITY MEASURED: IC50 (nM)

TEST SMILES | IC50, nM
Cc1c2c(=O)n(-c3ccccc3)nc-2n(CC(=O)N(C)c2ccc(Cl)cc2)c2ccccc12 | 0.13
O=C(Nc1cc2ncncc2cc1OCc1cccc(Cl)c1)Nc1cccc2ccccc12 | 722
CCOC(=O)c1c(N(CC)Cc2ccccc2)nc2ccccc2c1-c1ccccc1 | 540
Cc1nnc(SCC(=O)N(C)c2ccccc2)c2cc3sccc3n12 | 55.1
CCCNC(=O)c1c(CN(CC)Cc2ccccc2)nc2ccccc2c1-c1ccccc1 | 872
COc1ccc(N(C)C/C=C2\c3nc4ccccc4cc3C(=O)N2c2ccc(Cl)cc2)cc1 | 2360
COc1ccc(N(C)C(=O)Cn2c3nc4ccccc4c(C)c3c(=O)n2-c2ccccc2)cc1 | 17
CCN(Cc1ccccc1)C(=O)/C=C1\c2nc3ccccc3cc2C(=O)N1c1ccc(Cl)cc1 | 15

[a] CCN(Cc1ccccc1)Cc1nc2ccccc2c(-c2ccccc2)c1C(=O)N(C)C
[b] CCN(Cc1ccccc1)Cc1nc2ccccc2c(-c2ccccc2)c1C(=O)N(C)c1ccc(Cl)cc1
Sort a and b by IC50 descending and give the first. Returns: label corresponding to the selected item.
b
(b: 2480 nM, a: 229 nM)

[1] Cc1c2ccccc2nc2c1c(=O)n(-c1ccccc1)n2CC(=O)N(C)c1ccccc1
[2] Cc1c2ccccc2nc2c1c(=O)n(-c1ccccc1)n2CC(=O)N(C)c1ccc(Cl)cc1
[3] O=C(Nc1ccc(Cl)c(Cl)c1)Nc1cc2ncncc2cc1OCc1ccccc1Cl
[4] COc1ccc(N(C)C(=O)/C=C2\c3nc4ccccc4cc3C(=O)N2c2ccccc2)cc1
[5] CCN(CC)C(=O)Cn1c2nc3ccccc3c(C)c2c(=O)n1-c1ccccc1
Please put the entries in order of rising IC50. In plain terms: list the labels in the order you were asked to.
2, 4, 1, 5, 3

[a] CCc1nnc(SCC(=O)N(C)c2ccccc2)c2cc3sc(C)cc3n12
[b] CCN(CC)C(=O)Cn1c2nn(-c3ccccc3)c(=O)c-2c(C)c2ccccc21
Sort a and b by IC50 descending and give the first. Returns: label corresponding to the selected item.
a
(a: 39.9 nM, b: 0.83 nM)
